These data points were gathered from the nanobody polyreactivity screen of Harvey et al. (2022).

assay: yeast display, Sf9 membrane polyspecificity reagent, FACS + sequencing; frameworks hold sequencing errors
property: polyreactivity (PSR sort gate)

Examples from the recorded data:
Inquiry: Sample QVQLVESGGGLVQAGGSLRLSCAASGSIFYRYAMGWYRQAPGKERELVAAIRWSGGSTYYADSVKGRFTISRDNAKNTVYLQMNSQKPEDTAVYYCATEVSYGGYWSWYGYWGQGTQVTVSS — what was its polyreactivity (PSR sort gate)?
Reply text: low polyreactivity

Inquiry: Same question for QVQLVESGGGLVQAGGSLRLSCAASGSIFLIYAMGWYRQAPGKERELVATINRGDNTYYADSVKGRFTISRDNAKNTVYLQMNSLKPEDTAVYYCAADVPWGWWDSDFSDNYYWGQGTQVTVSS please.
Reply text: low polyreactivity

Inquiry: Another sequence to check: QVQLVESGGGLVQAGGSLRLSCAASGRIFKYYVMGWYRQAPGKERELVAGISSSGGSTYYADSVKGRFTISRDNAKNTVYLQMNSLKPEDTAVYYCAADYTFAYYNVKMDYWGQGTQVTVSS
Reply text: low polyreactivity

Inquiry: # iterate: QVQLVESGGGLVQAGGTLRLSCAASGFIFGINAMGWYRQAPGQERELVAAIATGDRTNYADSVTGRFTISRDNAKNTVYLQMNSLKPEHTAVYYCAAGVHWDRGDYWGQGTQVTVST
Reply text: low polyreactivity

Moving on to the next sequence.
Inquiry: Could you tell me which polyreactivity (PSR sort gate) is on file for QVQLVESGGGLVQAGGSLRLSCAASGRTFTRYAMGWYRQAPGKERELVAAISRGGNTNYADSVKGLFTISRDNAKNTVYLQMNSLKPEDTAVYYCARVYGGYSVPSAYGSWGQGTQVTVSS ?
Reply text: high polyreactivity
